Entries and their GI50 values follow.
Tested on: RPMI-8226
Measurement protocol: NCI tumour cell line growth inhibition, 48 h
Calls of active or inactive are those of the source. Rule as the data show it: active = GI50 up to about 1.1 µM and inactive = higher.

Request: Return GI50 (reported value) for this compound: "N#Cc1ccc(OCc2nc3cc(C(F)(F)F)ccc3nc2-c2ccccc2)cc1"
Response: > 100 µM (inactive)

Request: Return GI50 (reported value) for this compound: COc1cc([C@@H]2c3cc4c(cc3[C@@H](/N=C/c3ccc(C(=O)O[C@H]5C[C@H]6OC[C@@]6(OC(C)=O)[C@H]6[C@H](OC(=O)c7ccccc7)[C@]7(O)C[C@H](OC(=O)[C@H](OC(=O)c8ccc(/C=N/[C@@H]9c%10cc%11c(cc%10[C@@H](c%10cc(OC)c(O)c(OC)c%10)[C@H]%10C(=O)OC[C@@H]%109)OCO%11)cc8)[C@@H](NC(=O)c8ccccc8)c8ccccc8)C(C)=C([C@@H](OC(C)=O)C(=O)[C@]56C)C7(C)C)cc3)C3COC(=O)C32)OCO4)cc(C)c1O (stereo partly specified)
Response: > 50 µM (inactive)

Request: Return GI50 (reported value) for this compound: [N-]=[N+]=NC1(c2ccccc2)C(=O)c2cccc3c2N(CCC3)C1=O (stereo unspecified)
Response: 27.7 µM (inactive)

Request: Return GI50 (reported value) for this compound: C/C=C/CC(C(=O)OCC)(N(C)C(=O)OC(C)(C)C)S(=O)(=O)c1ccc(C)cc1 (stereo unspecified)
Response: 52.8 µM (inactive)

Request: Return GI50 (reported value) for this compound: "COc1ccc(C2=Nn3c(nc4sc(C)c(C)c4c3=O)SC2)cc1"
Response: > 100 µM (inactive)

Request: Return GI50 (reported value) for this compound: "Cc1c(-c2ccccc2)[nH]c2cn[nH]c(=O)c12"
Response: 74 µM (inactive)
